Entry source: ChEMBL document CHEMBL1132966

Quick record of pKi values for Protein kinase C alpha type (Homo sapiens).
pKi: −log10 of the molar value.
Assay Metric: pKi

Known pKi results, listed for orientation:
C/C=C1\CC(CO)(COC(=O)CC(C(C)C)C(C)C)OC1=O (stereo not given)	6.86
CCCCCCCC(=O)OC[C@]1(CO)C/C(=C/CC(C(C)C)C(C)C)C(=O)O1	8.46
CCCCCCOC(=O)/C=C/[C@]1(CO)C/C(=C\CC(C(C)C)C(C)C)C(=O)O1	7.53
C/C=C1/CC(CO)(COC(=O)CC(C(C)C)C(C)C)OC1=O (stereo not given)	6.79
CCC/C=C1\CC(CO)(COC(=O)CC(C(C)C)C(C)C)OC1=O (stereo not given)	7.55
CC(=O)OCC1(CO)C/C(=C/CC(C(C)C)C(C)C)C(=O)O1 (stereo not given)	6.91
CCCCCCCCCC(=O)OCC1(CO)C/C(=C/CC(C(C)C)C(C)C)C(=O)O1 (stereo not given)	8.64
CCCCCCCCCC(=O)OCC1(CO)C/C(=C\CC(C(C)C)C(C)C)C(=O)O1 (stereo not given)	8.18

(1) CCCC(=O)OCC1(CO)C/C(=C\CC(C(C)C)C(C)C)C(=O)O1 (stereo not given)
(2) CCCCCC(=O)OCC1(CO)C/C(=C\C=C(C(C)C)C(C)C)C(=O)O1 (stereo not given)
input: Lower value for measured pKi? Options: 1 , 2 Respond using the label that marks the chosen record.
output: 1
(1: 7.27, 2: 8.08)
